# System Under Test: recombinant human TFPI (tissue factor pathway inhibitor) (human, UniProt P10646 29-304)
# Procedure Summary: cell-based or functional assay
Assay Endpoint: FXa assay % of FXa alone, 2.5 nM Ab, 10 nM TFPI (%)
Just the number in %, nothing appended.

binder clone 12 (antibody, V domains shown, human IgG4/kappa IgG as purified; also called No. 12 antibody) VH: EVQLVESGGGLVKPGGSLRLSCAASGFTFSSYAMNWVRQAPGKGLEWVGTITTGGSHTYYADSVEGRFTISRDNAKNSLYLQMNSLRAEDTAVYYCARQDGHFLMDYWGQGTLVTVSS VL: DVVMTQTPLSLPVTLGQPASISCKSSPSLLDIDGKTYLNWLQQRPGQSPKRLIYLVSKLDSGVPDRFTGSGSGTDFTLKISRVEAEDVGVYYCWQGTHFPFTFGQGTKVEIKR , FXa assay % of FXa alone, 2.5 nM Ab, 10 nM TFPI observed: 7.4

binder clone 8 (antibody, V domains shown) VH: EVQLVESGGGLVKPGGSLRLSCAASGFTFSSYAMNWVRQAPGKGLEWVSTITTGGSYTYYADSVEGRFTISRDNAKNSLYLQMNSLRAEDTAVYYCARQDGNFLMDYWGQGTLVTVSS VL: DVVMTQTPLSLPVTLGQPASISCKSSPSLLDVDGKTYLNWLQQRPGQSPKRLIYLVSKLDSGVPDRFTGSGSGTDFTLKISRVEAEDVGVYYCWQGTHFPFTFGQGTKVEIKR , FXa assay % of FXa alone, 2.5 nM Ab, 10 nM TFPI observed: 7.4

Values were extracted from patent US20180030151A1.
